TEST_NAME: Log D by shake flask method (octanol / PBS pH 7.4, HPLC)
Format: physicochemical
APPLIED_CONDITIONS: octanol / PBS pH 7.4, shake flask; read-out: logD
logD: recorded values

Observe how each entry below is paired with its result.
[[record]]
compound = "CCNC(=O)C(=O)CC[C@H](NC(=O)c1coc2ccccc12)C(=O)Nc1cccn(CC(=O)N[C@H]2C[C@H]3C[C@@H]([C@@H]2C)C3(C)C)c1=O"
quantity = "logD"
measured = "3 to 5"

[[record]]
compound = "CCNC(=O)C(=O)CC[C@H](NC(=O)c1cc(C(=O)OC)cc([N+](=O)[O-])c1)C(=O)Nc1cccn(CC(=O)NC2(C(=O)OC)C3CC4CC(C3)CC2C4)c1=O (stereo partly drawn)"
quantity = "logD"
measured = "1 to 3"


Recorded logD for CCNC(=O)C(=O)CC[C@H](NC(=O)[C@@H]1CCCN1C(C)=O)C(=O)Nc1cccn(CC(=O)NC2C3CC4CC(C3)CC2C4)c1=O (stereo partly drawn) , please?
1 to 3
